- Tested on: α7 integrin promoter
- protocol description: muscle cell-based assay: α7βgal+/− myoblasts/myotubes, LacZ reporter, β-galactosidase cleavage of FDG
- Design: species or system mouse
- measurement context: Myotubes; compound at 1 uM
Provide the reported Results in a α7+/− β-galactosidase assay, Myotubes, 1 uM of each item.
// return just the number, without any unit appended

Prompt line: Entry C=CCOc1ccc(C(=O)/C=C2\C(=O)Nc3ccccc32)cc1 [drawing 353] : reported Results in a α7+/− β-galactosidase assay, Myotubes, 1 uM = ?
Response line: −0.0826

Prompt line: Entry CCC(=O)c1ccc(OCC(O)CN2CCOC(C)C2)cc1.O=C(O)C(=O)O (centres unmarked) [drawing 403] : reported Results in a α7+/− β-galactosidase assay, Myotubes, 1 uM = ?
Response line: 0.03201

Prompt line: Entry CC(=O)Oc1c(Cl)cc(/C=C2\C(=O)Nc3ccccc32)cc1Cl [drawing 506] : reported Results in a α7+/− β-galactosidase assay, Myotubes, 1 uM = ?
Response line: −0.06941

Prompt line: Entry CCOC(=O)C1(Cc2cccc(Cl)c2)CCCN(C(=O)CCSC)C1 (centres unmarked) [drawing 396] : reported Results in a α7+/− β-galactosidase assay, Myotubes, 1 uM = ?
Response line: 0.02732

Prompt line: Entry CC(C)c1ccc(NC(=O)CN2C(=O)c3ccccc3S2(=O)=O)cc1 [drawing 399] : reported Results in a α7+/− β-galactosidase assay, Myotubes, 1 uM = ?
Response line: −0.0433

----------
- System: α7 integrin promoter
- protocol description: muscle cell-based assay: α7βgal+/− myoblasts/myotubes, LacZ reporter, β-galactosidase cleavage of FDG
- Set-up: species or system mouse
- measurement context: Myotubes; compound at 5 uM
Results in a α7+/− β-galactosidase assay, Myotubes, 5 uM class ranges: low bin = under -0.2, mid bin = from -0.2 up to -0.01, high bin = -0.01 and over

Prompt line: Would you mind sorting CCCN(C(=O)c1ccc(S(=O)(=O)N2CCCC2)cc1)C1CCS(=O)(=O)C1 (stereo not drawn) [drawing 352] into the appropriate category?
Response line: mid bin

Prompt line: Would you mind sorting Oc1nc(SCc2ccc(Cl)cc2)nc2ccsc12 [drawing 427] into the appropriate category?
Response line: mid bin

Prompt line: Would you mind sorting CCC(C)NC(=O)CSc1nnc(COc2ccc(Br)cc2)o1 (stereo not drawn) [drawing 391] into the appropriate category?
Response line: low bin

Prompt line: Would you mind sorting COc1ccc(C(=O)Nc2ccc(Cl)cn2)cc1Cl [drawing 498] into the appropriate category?
Response line: low bin

Prompt line: Would you mind sorting CCO/C(C)=C1\C(=O)Nc2ccccc21 [drawing 497] into the appropriate category?
Response line: low bin

Prompt line: Would you mind sorting Nc1cccc(/C=C/C(=O)O)c1 [drawing 468] into the appropriate category?
Response line: low bin

Prompt line: Would you mind sorting COc1ccccc1C(=O)Nc1ccnn1C1CCN(C(=O)c2ccoc2)CC1 [drawing 343] into the appropriate category?
Response line: high bin

Prompt line: Would you mind sorting O=C1Nc2ccccc2/C1=C/c1cccnc1 [drawing 327] into the appropriate category?
Response line: high bin

Prompt line: Would you mind sorting Cc1ccc2c(c1)/C(=C/c1ccco1)C(=O)N2 [drawing 488] into the appropriate category?
Response line: high bin

Prompt line: Would you mind sorting O=C(CCc1ccccc1)c1nnc(-c2ccccc2)o1 [drawing 367] into the appropriate category?
Response line: mid bin

Prompt line: Would you mind sorting c1ccc(-c2nn[nH]n2)nc1 [drawing 408] into the appropriate category?
Response line: mid bin

Prompt line: Would you mind sorting Cc1[nH]c2ccc(F)cc2c1CCN(Cc1ccco1)/C(S)=N/C(C)(C)C [drawing 431] into the appropriate category?
Response line: mid bin

Prompt line: Would you mind sorting COc1cccc(C(=O)COc2ccc3ccc(=O)oc3c2)c1 [drawing 363] into the appropriate category?
Response line: high bin

Prompt line: Would you mind sorting Cc1nnc(SCC(=O)c2ccc(Br)cc2)s1 [drawing 501] into the appropriate category?
Response line: low bin

Prompt line: Would you mind sorting CCC(=O)c1ccc(OCC(O)CN2CCOC(C)C2)cc1.O=C(O)C(=O)O (stereo not drawn) [drawing 403] into the appropriate category?
Response line: mid bin

Prompt line: Would you mind sorting COc1ccccc1NS(=O)(=O)c1cc(NC(=O)c2ccc(Cl)nc2)ccc1N1CCCC1 [drawing 358] into the appropriate category?
Response line: high bin

Prompt line: Would you mind sorting O=C1Nc2ccccc2/C1=C/c1ccccc1F [drawing 383] into the appropriate category?
Response line: mid bin

Prompt line: Would you mind sorting CC1Cc2ccccc2N1C(=O)CSc1nnc(N)s1 (stereo not drawn) [drawing 423] into the appropriate category?
Response line: mid bin

Prompt line: Would you mind sorting Cc1nnc(-c2ccc(N3CCOCC3)c([N+](=O)[O-])c2)o1 [drawing 338] into the appropriate category?
Response line: mid bin

Prompt line: Would you mind sorting NC(=O)COc1ccc(C(=O)/C=C2\C(=O)Nc3ccccc32)cc1 [drawing 379] into the appropriate category?
Response line: high bin

Prompt line: Would you mind sorting COc1c(Cl)cc(/C=C2\C(=O)Nc3ccccc32)cc1Cl [drawing 504] into the appropriate category?
Response line: low bin

Prompt line: Would you mind sorting c1ccc(-c2cn3c4c(sc3n2)CCCC4)cc1 [drawing 490] into the appropriate category?
Response line: low bin

Prompt line: Would you mind sorting CC(=O)Oc1c(Cl)cc(/C=C2\C(=O)Nc3ccccc32)cc1Cl [drawing 506] into the appropriate category?
Response line: low bin

Prompt line: Would you mind sorting O=C1Nc2ccccc2/C1=C\c1cccn1-c1ccc(OC(F)(F)F)cc1 [drawing 445] into the appropriate category?
Response line: high bin

Prompt line: Would you mind sorting CCC(C)C(CC)NC(=O)CSc1nnc(COc2ccc(Cl)cc2)o1 (stereo not drawn) [drawing 374] into the appropriate category?
Response line: mid bin

Prompt line: Would you mind sorting COc1c(Cl)cc(/C=C2\C(=O)Nc3ccccc32)cc1Cl [drawing 505] into the appropriate category?
Response line: low bin

Prompt line: Would you mind sorting Cc1ccc(C(=O)N2CCN(S(=O)(=O)N3CCOCC3)CC2)cc1 [drawing 434] into the appropriate category?
Response line: high bin

Prompt line: Would you mind sorting CCOC(=O)C1=C(NC(=O)c2ccc(OC)c(S(=O)(=O)N3CCCCC3C)c2)Nc2ccccc2N=C1CC (stereo not drawn) [drawing 429] into the appropriate category?
Response line: low bin

Prompt line: Would you mind sorting CCCS(=O)(=O)c1nc(S(=O)(=O)c2ccc(C)cc2)c(N2CCCC2)s1 [drawing 364] into the appropriate category?
Response line: mid bin

Prompt line: Would you mind sorting Cc1cc(OCC(=O)NC(C)C)ccc1Cl [drawing 472] into the appropriate category?
Response line: low bin

Prompt line: Would you mind sorting Cc1cccc(NCC(=O)N/N=C/c2ccccn2)c1 [drawing 483] into the appropriate category?
Response line: high bin

Prompt line: Would you mind sorting CC(C)(C)NC(=O)NC(=O)CN1CCN(Cc2ccccc2)CC1 [drawing 424] into the appropriate category?
Response line: high bin

Prompt line: Would you mind sorting CCOC(=O)C1CCCN(C(=O)CNS(=O)(=O)c2ccc(Br)s2)C1 (stereo not drawn) [drawing 500] into the appropriate category?
Response line: low bin

Prompt line: Would you mind sorting O=C(NCc1ccccc1)C(c1c(F)cccc1Cl)N(C(=O)c1csnn1)C1CC1 (stereo not drawn) [drawing 430] into the appropriate category?
Response line: low bin

Prompt line: Would you mind sorting CCc1c(C)sc(NC(=O)c2ccco2)c1C#N [drawing 319] into the appropriate category?
Response line: high bin

Prompt line: Would you mind sorting COc1ccc2c(c1)/C(=C\c1cccc(/C=C3/C(=O)Nc4ccc(OC)cc43)n1)C(=O)N2 [drawing 443] into the appropriate category?
Response line: low bin

Prompt line: Would you mind sorting CCOC(=O)C1(Cc2cccc(Cl)c2)CCCN(C(=O)CCSC)C1 (stereo not drawn) [drawing 396] into the appropriate category?
Response line: low bin

Prompt line: Would you mind sorting CCOc1cc2c3c(c1)C(C)=CC(C)(C)N3C(=O)C2=O [drawing 442] into the appropriate category?
Response line: low bin

Prompt line: Would you mind sorting O=S(=O)(N/C(=N/C1CCCCC1)c1ccccc1F)c1ccccc1 [drawing 334] into the appropriate category?
Response line: high bin
